Target: T1, human IGF2^1-67 (mature insulin-like growth factor 2) (human, UniProt P01344 25-91, biotinylated (site not stated) where immobilised on the chip (Tables 1-4))
T1 construct: mature; also called mature IGF2; biotinylated IGF2
T1 sequence (P01344 25-91): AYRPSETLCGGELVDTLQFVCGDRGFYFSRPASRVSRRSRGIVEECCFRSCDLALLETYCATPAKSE
Test: SPR kinetic, biotin-IGF2 on chip, pH 7.4
Readout Name: kon (M⁻¹ s⁻¹)

Recorded results for 6 binders are shown here.
* domain 11^AB3 P1597H (receptor, See m5; also called AB3 + 62B (FG-P1597H)) MKSNEHDDCQVTNPSTGHLFDLSSLSGRAGFTAAYSKSGVVYMSICGENENCPPGVGACFGQTRISVGKANKRLRYVDQVLQLVYKDGSHCPSKSGLSYKSVISFVCRPEAGPTNRPMLISLDKQTCTLFFSWHTPLACEQATECSV | 1.06e+07
* domain 11^AB3 Q1569R P1597K S1602H G1603K (receptor, See m5) MKSNEHDDCQVTNPSTGHLFDLSSLSGRAGFTAAYSKSGVVYMSICGENENCPPGVGACFGRTRISVGKANKRLRYVDQVLQLVYKDGSKCPSKHKLSYKSVISFVCRPEAGPTNRPMLISLDKQTCTLFFSWHTPLACEQATECSV | 2.08e+07
* IGF2R domain 11^AB5 (receptor, His6-tagged soluble domain 11; also called 1542YAKGWG1547) MKSNEHDDCQVTNPSTGHLFDLSSLSGRAGFTAAYAKGWGVYMSICGENENCPPGVGACFGQTRISVGKANKRLRYVDQVLQLVYKDGSPCPSKSGLSYKSVISFVCRPEAGPTNRPMLISLDKQTCTLFFSWHTPLACEQATECSV | 4.21e+06
* domain 11^AB5 P1597N (receptor, See m5) MKSNEHDDCQVTNPSTGHLFDLSSLSGRAGFTAAYAKGWGVYMSICGENENCPPGVGACFGQTRISVGKANKRLRYVDQVLQLVYKDGSNCPSKSGLSYKSVISFVCRPEAGPTNRPMLISLDKQTCTLFFSWHTPLACEQATECSV | 4.72e+06
* domain 11^AB5 Q1569R P1597K S1602H (receptor, See m5) MKSNEHDDCQVTNPSTGHLFDLSSLSGRAGFTAAYAKGWGVYMSICGENENCPPGVGACFGRTRISVGKANKRLRYVDQVLQLVYKDGSKCPSKHGLSYKSVISFVCRPEAGPTNRPMLISLDKQTCTLFFSWHTPLACEQATECSV | 7.87e+06
* domain 11^AB5 Q1569R (receptor, See m5) MKSNEHDDCQVTNPSTGHLFDLSSLSGRAGFTAAYAKGWGVYMSICGENENCPPGVGACFGRTRISVGKANKRLRYVDQVLQLVYKDGSPCPSKSGLSYKSVISFVCRPEAGPTNRPMLISLDKQTCTLFFSWHTPLACEQATECSV | 8.04e+06

(1) domain 11^AB5 P1597Q (receptor, See m5) MKSNEHDDCQVTNPSTGHLFDLSSLSGRAGFTAAYAKGWGVYMSICGENENCPPGVGACFGQTRISVGKANKRLRYVDQVLQLVYKDGSQCPSKSGLSYKSVISFVCRPEAGPTNRPMLISLDKQTCTLFFSWHTPLACEQATECSV
(2) domain 11^AB3 P1597H K1631W (receptor, See m5) MKSNEHDDCQVTNPSTGHLFDLSSLSGRAGFTAAYSKSGVVYMSICGENENCPPGVGACFGQTRISVGKANKRLRYVDQVLQLVYKDGSHCPSKSGLSYKSVISFVCRPEAGPTNRPMLISLDWQTCTLFFSWHTPLACEQATECSV
*Q* Please state the entry with greater kon among 1 and 2 . Please reply using the label of the selected record.
*A* 2

Origin of measurements: patent US20180237497A1
